What pKd was measured for each of the following?
Assayed system: DLG2_2, Q15700
Sequence (Q15700 189-283): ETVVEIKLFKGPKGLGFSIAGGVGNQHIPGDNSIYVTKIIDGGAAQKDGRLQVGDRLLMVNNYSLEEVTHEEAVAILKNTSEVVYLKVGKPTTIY
Test name: holdup assay
Parameters: key: below the threshold = too weak to quantify, mostly under pKd 3.1 to 4
Measurement conditions: plain residues with an end cap or a label only (N-terminal biotin on a linker: ttds)
Write the number on its own, no unit after it.

Asked: # query: pKd of entry VDFPPKESSL [ACVR2A, P27037]
Given back: 3.84

Asked: Which value of pKd has been reported for RLQRRRETQV [HPV18-E6, P06463] in the records?
Given back: 5.19

Asked: // lookup pKd for SSLQSLETSV [ATP2B4, P23634]
Given back: 5.08

Asked: Using the record for RHTTSTETAV [HPV30-E6, P36809] , report its pKd.
Given back: 5.19
